Test: Metabolic stability in mouse liver microsome assessed as half life at 1 uM measured up to 60 mins in presence of NADPH by LC-MS/MS analysis
Assay type: ADME
Conditions: liver microsomes
Output satisfied for half-life at 1 µM not less than 70 min; output not satisfied otherwise.

[[record]]
compound = "Cn1c(=O)n(C2CCC(=O)NC2=O)c2cccc(C#CCO[C@H]3CC[C@H](CN4CCC5(CC4)Cc4cc(NC(=O)c6cnn7cccnc67)c(N6CCC(C(=O)O)CC6)cc4O5)CC3)c21 (stereo not given in full)"
class = "satisfied"

[[record]]
compound = "Cn1c(=O)n(C2CCC(=O)NC2=O)c2cccc(C#CCO[C@H]3CC[C@H](CN4CCC5(CC4)Cc4cc(NC(=O)c6cnn7cccnc67)c(N6CCC(O)CC6)cc4O5)CC3)c21 (stereo not given in full)"
class = "satisfied"

[[record]]
compound = "Cn1c(=O)n(C2CCC(=O)NC2=O)c2cccc(C#CCO[C@H]3CC[C@H](CN4CCC5(Cc6cc(NC(=O)c7cnn8cccnc78)c(N7CCC(CO)CC7)cc6O5)C4)CC3)c21 (stereo not given in full)"
class = "satisfied"

[[record]]
compound = "Cn1c(=O)n(C2CCC(=O)NC2=O)c2cccc(CN3CCC4(CC3)CN(CCN3CCC5(CC3)Cc3cc(NC(=O)c6cnn7cccnc67)c(N6CCC(CO)CC6)cc3O5)C4)c21 (stereo not given)"
class = "not satisfied"

[[record]]
compound = "Cn1c(=O)n(C2CCC(=O)NC2=O)c2cccc(C#CCO[C@H]3CC[C@H](CN4CCC5(CC4)Cc4cc(NC(=O)c6cnc7cccnn67)c(N6CCC(CO)CC6)cc4O5)CC3)c21 (stereo not given in full)"
class = "satisfied"

[[record]]
compound = "Cn1c(=O)n(C2CCC(=O)NC2=O)c2cccc(C#CCO[C@H]3CC[C@H](CN4CCC5(CC4)Cc4cc(NC(=O)c6coc7cccnc67)c(N6CCC(CO)CC6)cc4O5)CC3)c21 (stereo not given in full)"
class = "satisfied"

[[record]]
compound = "Cn1c(=O)n(C2CCC(=O)NC2=O)c2cccc(C#CCOC3CCN(CCN4CCC5(CC4)Cc4cc(NC(=O)c6cnn7cccnc67)c(N6CCC(CO)CC6)cc4O5)CC3)c21 (stereo not given)"
class = "satisfied"

[[record]]
compound = "Cn1c(=O)n(C2CCC(=O)NC2=O)c2cccc(C#CCO[C@H]3CC[C@](F)(CN4CCC5(CC4)Cc4cc(NC(=O)c6cnn7cccnc67)c(N6CCC(CO)CC6)cc4O5)CC3)c21 (stereo not given in full)"
class = "satisfied"

[[record]]
compound = "Cn1c(=O)n(C2CCC(=O)NC2=O)c2cccc(C#CCO[C@H]3CC[C@H](C(=O)N4CCC5(CC4)Cc4cc(NC(=O)c6cnn7cccnc67)c(N6CCC(CO)CC6)cc4O5)CC3)c21 (stereo not given in full)"
class = "not satisfied"

[[record]]
compound = "Cn1c(=O)n(C2CCC(=O)NC2=O)c2cccc(CN3CCC(CCN4CCC5(CC4)Cc4cc(NC(=O)c6cnn7cccnc67)c(N6CCC(CO)CC6)cc4O5)CC3)c21 (stereo not given)"
class = "not satisfied"

[[record]]
compound = "Cn1c(=O)n(C2CCC(=O)NC2=O)c2cccc(C#CCO[C@H]3CC[C@H](CN4CCC5(CC4)Cc4cc(NC(=O)c6cnn7cccnc67)c(N6CCC(CO)CC6)cc4O5)CC3)c21 (stereo not given in full)"
class = "satisfied"

[[record]]
compound = "Cn1c(=O)n(C2CCC(=O)NC2=O)c2cccc(C#CCO[C@H]3CC[C@H](CN4CCC5(CC4)Cc4cc(NC(=O)c6cnn7cc(F)cnc67)c(N6CCC(CO)CC6)cc4O5)CC3)c21 (stereo not given in full)"
class = "satisfied"

[[record]]
compound = "Cc1cnc2c(C(=O)Nc3cc4c(cc3N3CCC(CO)CC3)OC3(CCN(C[C@H]5CC[C@H](OCC#Cc6cccc7c6n(C)c(=O)n7C6CCC(=O)NC6=O)CC5)CC3)C4)cnn2c1 (stereo not given in full)"
class = "satisfied"

[[record]]
compound = "Cn1c(=O)n(C2CCC(=O)NC2=O)c2cccc(C#CCN3CCN(CC(=O)N4CCC5(CC4)Cc4cc(NC(=O)c6cnn7cccnc67)c(N6CCC(CO)CC6)cc4O5)CC3)c21 (stereo not given)"
class = "satisfied"

[[record]]
compound = "Cn1c(=O)n(C2CCC(=O)NC2=O)c2cccc(C#CCOC3CCN(C(=O)CN4CCC5(CC4)Cc4cc(NC(=O)c6cnn7cccnc67)c(N6CCC(CO)CC6)cc4O5)CC3)c21 (stereo not given)"
class = "not satisfied"

